meta.source: ChEMBL document CHEMBL1149209

These compounds were tested on Histamine H1 receptor (Homo sapiens); pKi is the recorded read-out.
Sequence (P35367 whole entry): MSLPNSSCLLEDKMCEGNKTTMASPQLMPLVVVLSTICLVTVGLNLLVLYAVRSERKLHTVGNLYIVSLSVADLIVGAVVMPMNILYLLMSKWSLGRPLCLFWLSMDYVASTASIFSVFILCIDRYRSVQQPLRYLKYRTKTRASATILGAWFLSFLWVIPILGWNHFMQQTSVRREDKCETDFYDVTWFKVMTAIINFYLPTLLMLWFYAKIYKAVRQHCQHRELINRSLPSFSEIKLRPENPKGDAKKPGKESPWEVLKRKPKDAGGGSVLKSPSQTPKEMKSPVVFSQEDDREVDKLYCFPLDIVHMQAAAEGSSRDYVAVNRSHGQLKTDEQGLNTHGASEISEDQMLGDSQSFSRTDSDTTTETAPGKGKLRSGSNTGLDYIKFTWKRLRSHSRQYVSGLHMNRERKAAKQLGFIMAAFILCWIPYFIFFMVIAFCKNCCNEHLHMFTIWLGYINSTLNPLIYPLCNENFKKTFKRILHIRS
API: returns pKi as number; meaning -log10 of concentration in mol/L.

Reference set (2 entries):
COMPOUND	pKi
CN(C)C[C@H]1C[C@@H]2c3ccccc3Cc3ccccc3[C@H]2O1	9.27
CN(C)C[C@@H]1C[C@@H]2c3ccccc3Cc3ccccc3N2O1	9.19

Reported pKi for CN(C)CC1C[C@@H]2c3ccccc3Sc3ccccc3[C@H]2O1 (some centres not stated) : what is it? 8.37

Also CN1CCN(CC2C[C@@H]3c4ccccc4Sc4ccccc4[C@H]3O2)CC1 (some centres not stated) , if possible. 8.92

----------
ED50 by entry:
# System: Rattus norvegicus
# ASSAY PROTOCOL: Effective dose required for antagonistic activity in mCPP challenge test in male wistar rats after subcutaneous administration
# Assay type: functional
# EXPERIMENTAL SETUP: sc

Reported ED50 for CN(C)C[C@@H]1C[C@H]2c3ccccc3Cc3ccccc3[C@@H]2O1 : what is it? 1.26 mg/kg

Also CN(C)C[C@H]1C[C@@H]2c3ccccc3Cc3ccccc3[C@H]2O1 , if possible. 0.04 mg/kg
